Test system: MOLM-13
Experiment: Cytotoxicity assay (CellTiterGlo, 72 hours treatment), MOLM-13
Type: cell-based, Human
Details: Homo sapiens, MOLM-13, 72 h, MOLM-13 acute myeloid leukemia cells, ATP determination, read-out: Cell line IC50 MOLM-13
Counter-ions that a name gives are not always drawn.
Catalogue of molecules with associated IC50
Dear colleague, please return just the value in nM, with no unit written.

Solved cases (10 shown):
- MOLECULE: "Cc1ccc(C#N)cc1-c1ccc2[nH]nc(NC(=O)[C@@H]3CCCNC3)c2c1 [cpd 24, hydrochloride]"
  ASSAY RESULT: 563
- MOLECULE: "O=C(Nc1n[nH]c2ccc(-c3c(Cl)cccc3Cl)cc12)C1CCCNC1 (stereo not shown) [compound 157, hydrochloride]"
  ASSAY RESULT: 521
- MOLECULE: "CCNC1CC(C(=O)Nc2n[nH]c3ccc(-c4cc(C#N)ccc4Cl)cc23)C1 (stereo not shown) [compound 152, hydrochloride]"
  ASSAY RESULT: 203
- MOLECULE: "O=C(Nc1n[nH]c2ccc(-c3c(Cl)cccc3Cl)cc12)[C@@H]1CCNC1 [compound 167, hydrochloride]"
  ASSAY RESULT: 610
- MOLECULE: "N#Cc1ccc(Cl)c(-c2ccc3[nH]nc(NC(=O)[C@@H]4CCC5(CCCCC5)NC4)c3c2)c1 (single isomer, unassigned)"
  ASSAY RESULT: 194
- MOLECULE: "N#Cc1ccc(Cl)c(-c2ccc3[nH]nc(NC(=O)[C@@H]4CCNC4)c3c2)c1 [compound 176, hydrochloride]"
  ASSAY RESULT: 505
- MOLECULE: "CC1(C)CCC(C(=O)Nc2n[nH]c3ccc(-c4cc(C#N)ccc4Cl)cc23)CN1 (stereo not shown) [compound 184, hydrochloride]"
  ASSAY RESULT: 164
- MOLECULE: "CC(=O)c1ccc(Cl)c(-c2ccc3[nH]nc(NC(=O)[C@@H]4CCCNC4)c3c2)c1 [cpd 33, hydrochloride]"
  ASSAY RESULT: 1350
- MOLECULE: "N#Cc1ccc(Cl)c(-c2ccc3[nH]nc(NC(=O)[C@@H]4CCC5(CCCC5)NC4)c3c2)c1 (single isomer, unassigned) [compound 204, hydrochloride]"
  ASSAY RESULT: 194
- MOLECULE: "N#Cc1ccc(Cl)c(-c2ccc3[nH]nc(NC(=O)C4CCC5(CCCCC5)NC4)c3c2)c1 (stereo not shown) [compound 186, hydrochloride]"
  ASSAY RESULT: 303

Entry O=C(Nc1n[nH]c2ccc(-c3c(F)cccc3Cl)cc12)C1CCCNC1 (stereo not shown) [compound 165, hydrochloride] ; IC50 = 463

Lab note: CNC1CC(C(=O)Nc2n[nH]c3ccc(-c4c(Cl)cccc4Cl)cc23)C1 (stereo not shown) [compound 145, hydrochloride] gave IC50 of 483

Measured IC50 of N#Cc1ccc(Cl)c(-c2ccc3[nH]nc(NC(=O)[C@@H]4CCCNC4)c3c2)c1 [compound 174, hydrochloride] : 190

In plain terms, Cc1ccc(F)c(-c2ccc3[nH]nc(NC(=O)[C@@H]4CCCNC4)c3c2)c1 [cpd 32, hydrochloride] has a documented IC50 of 1510

Recorded result, N#Cc1ccc(Cl)c(-c2ccc3[nH]nc(NC(=O)C4CCCNC4)c3c2)c1 (stereo not shown) [compound 171, hydrochloride] , IC50: 520

For reference, reported IC50 for O=C(Nc1n[nH]c2ccc(-c3c(Cl)cccc3Cl)cc12)[C@@H]1CCCNC1 [compound 169, hydrochloride] stands at 219

Lookup result for N#Cc1ccc(Cl)c(-c2ccc3[nH]nc(NC(=O)C4CCC5(CCCC5)NC4)c3c2)c1 (stereo not shown) [compound 185, hydrochloride] ; measured IC50: 261

IC50 in this record for C[C@@H]1CC[C@@H](C(=O)Nc2n[nH]c3ccc(-c4cc(C#N)ccc4Cl)cc23)CN1 [compound 179, trifluoroacetate] : 414

The value of IC50 measured for the molecule N#Cc1ccc(F)c(-c2ccc3[nH]nc(NC(=O)[C@@H]4CCCNC4)c3c2)c1 [cpd 25, hydrochloride] turned out to be 2860
